# Test system: B. tabaci
# assay.notes: Statistical correlation (stepwise-linear regression, MANOVA) of headspace volatiles with whitefly repellence ranking
# Design: species or system Bemisia tabaci
# condition.parameters: linked to S. pennelli, S. habrochaites or cultivated S. lycopersicum headspace
observable: compounds responsible for repellency or attraction of whitefly

compound: CC1=CCC(C(C)C)=CC1
system.name: B. tabaci
observed.value: repellent
//
compound: CC(C)=CCC[C@@H](C)[C@@H]1C=CC(C)=CC1 [7-epi zingiberene]
system.name: B. tabaci
observed.value: more unattractive
//
compound: CC(C)=CCC[C@H](C)c1ccc(C)cc1
system.name: B. tabaci
observed.value: more unattractive
//
compound: Cc1ccc(C(C)C)cc1
system.name: B. tabaci
observed.value: repellent
//
compound: CC1=CC=C(C(C)C)CC1
system.name: B. tabaci
observed.value: repellent
//
compound: CC1=CCC(C(C)C)C=C1 (stereo not shown)
system.name: B. tabaci
observed.value: repellent

Shifting focus to the compound that follows.
Need compounds responsible for repellency or attraction of whitefly of "C=CC(=C)CCC=C(C)C" , thanks.
repellent

* * *

# Tested on: B. tabaci
# assay.notes: Free-choice bioassay: headspace or pure volatiles added to one of four cv Moneymaker tomato plants
# Type: in vivo, Bemisia tabaci (biotype Q, Almeria population)
# condition.parameters: pure compound added to Moneymaker background
observable: effect on repellence/attractiveness of treated tomato plant (in words)

molecule: CC(C)=CCC[C@H](C)c1ccc(C)cc1
observed.value: clear repellent effect
--
molecule: CC(C)=CCC[C@@H](C)[C@@H]1C=CC(C)=CC1 [7-epi zingiberene]
observed.value: clear repellent effect
